Data origin: the RNAGym collection of RNA variant scans (doi:10.7554/elife.80360)

B1: Hairpin Ribozyme (parent)
chain: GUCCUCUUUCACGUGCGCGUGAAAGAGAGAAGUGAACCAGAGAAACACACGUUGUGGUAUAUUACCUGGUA

Variants of: B1
Assay: self-cleavage, relative activity (ratio to wild type); higher = more cleavage; co-transcriptional
Assign self-cleavage to each entry below.
Give bare numbers.

Worked examples, 3 variants total:
[[record]]
chain_sequence = "GUCCUCUUUCACGUGCGCGUGAAAGAGAGAAGUGAGCCAGAGAAACACACGUCGUGGUAUAUUACCUGGUA"
reported_value = 1.08

[[record]]
chain_sequence = "GUCCUCUUUCACGUGCGCGUGAAAGAGAGAAGUCAACCAGAGAAACACACGUUGUGGUAUAUUAGCUGGUA"
reported_value = 1.07

[[record]]
chain_sequence = "GUCCUCUUUCACGUGCGCGUGAAAGAGAGAAGUGAACCACAGAAACACACGUUGUGGUAUCUUACCUGGUA"
reported_value = 0.107


The following variants each have a reported value; give each one's self-cleavage.
1. GUCCUCUUUCACGUGCGCGUAAAAGAGAGAAGUGAACCAGAGAAACACACGUUGAGGUAUAUUACCUGGUA
2. GCCCGCUUUCACGUGCGCGUGAAAGAGAGAAGUGAACCAGAGAAACACACGUUGUGGUAUAUUACCUGGUA
3. GUCCUCUUUCACGUGUGCGUGAAAGAGAGAAGUGAACCAGAGAAACACACGUUGUGGUAUAUUCCCUGGUA
4. GCCCUCUUUCACGUGCGCGUGAAAGAGAGAAGUGAACCAGAGAAACACACGUUGUGGUAAAUUACCUGGUA
5. GUCCUCUUUCACGUGCGCGUGAAAGAGAGAAGUGAACCAGAGAAACACACGUUGUCGUAUAUUACCUGCUA

0.177
0.0932
0.133
0.312
0.12

Required: self-cleavage, one value per variant below.
1. GUCCUCUUUCACGUGCGCGUGAAAGAGAGAAGUGAAUCAGAGAAACACACGUUGUGGUAUAUAACCUGGUA
2. GUCCUCUUUCACAUGCGCGUGAAAUAGAGAAGUGAACCAGAGAAACACACGUUGUGGUAUAUUACCUGGUA
3. GUCCUCUUUCACGUGCGCGUGAAAGAGAGCAGUGAACCAGAGAAACACACGUUGUGGUAGAUUACCUGGUA
4. GUCCUCUUUCGCGUGCGCGUGAUAGAGAGAAGUGAACCAGAGAAACACACGUUGUGGUAUAUUACCUGGUA
5. GUUCUCUUUCACGUGCGCGUGAAAGAGAGAAGUGAACCAGAGAAACACACGUUGUGGUAAAUUACCUGGUA
6. GUCCUCUUUCACGUGCCCGUUAAAGAGAGAAGUGAACCAGAGAAACACACGUUGUGGUAUAUUACCUGGUA

0.24
0.512
0.181
0.93
0.446
0.53
